ASSAYED_TARGET: recombinant human JAK1 kinase domain protein (Residues 854-1154) (Homo sapiens, UniProt P23458)
Construct: human JAK1 kinase domain protein (Residues 854-1154)
Sequence (P23458 854-1154): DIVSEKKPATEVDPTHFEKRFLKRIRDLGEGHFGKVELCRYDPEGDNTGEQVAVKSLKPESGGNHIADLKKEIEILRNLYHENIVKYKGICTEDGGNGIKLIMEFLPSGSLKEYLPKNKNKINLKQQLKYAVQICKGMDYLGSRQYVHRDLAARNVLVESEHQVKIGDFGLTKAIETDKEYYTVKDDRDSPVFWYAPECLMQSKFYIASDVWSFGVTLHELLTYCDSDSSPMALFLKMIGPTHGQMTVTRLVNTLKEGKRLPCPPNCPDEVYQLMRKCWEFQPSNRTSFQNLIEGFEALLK
PROTOCOL_TEXT: JAK1 biochemical assay (microfluidic mobility shift, peptide phosphorylation)
STATED_CONDITIONS: 25 μM ATP, 1 nM total JAK1; read-out: Enzyme JAK1 Ki
pKi: −log10 of the molar value.
RECORDED_METRIC: pKi

[A] Cn1cc(NC(=O)c2cnn3cccnc23)c(-c2cc(S(=O)(=O)C3COC3)ccc2OC(F)F)n1
[B] Cn1cc(NC(=O)c2cnn3cccnc23)c(-c2cc(S(N)(=O)=O)ccc2OC(F)F)n1
Higher pKi between A and B ? Answer = label.
A
